# Run description: Pharmacokinetics, liver samples (Example 17)
# Format: in vivo, mice
# Measurement context: mouse, liver, po, 5 h after oral gavage administration of THC or THC-d5; label = analyte; n=3; read-out: Component in the liver, Average
Quantity measured: concentration at 5 h (ng/mL)
Field format: number, assumed ng/mL, no unit text.

{"columns": ["Compound", "Quantity measured", "Unit text", "Readout value"],
 "data": [
  ["[2H]C([2H])([2H])C1=C[C@H]2c3c(O)cc(CCCCC)cc3OC(C)(C)[C@@H]2CC1([2H])[2H] [9-CD3-(8-D2)-THC]", "concentration at 5 h", "ng/mL", 5.99]
]}

Request: concentration at 5 h for CCCCCc1cc(O)c2c(c1)OC(C)(C)[C@@H]1CCC(C)=C[C@@H]21 [THC, Δ-9-tetrahydrocannabinol] ?
Response: 3.77

====

# Run description: Persistence over time, blood samples (Example 18)
# Assay type: in vivo, mice
# Measurement context: mouse, blood, oral; 8 mg/kg administration, Time 3 h; label = analyte
Quantity measured: concentration at 3 h
# answer = value followed by unit

{"columns": ["Compound", "concentration at 3 h"],
 "data": [
  ["CCCCCc1cc(O)c2c(c1)OC(C)(C)[C@@H]1CCC(C)=C[C@@H]21 [THC, Δ-9-tetrahydrocannabinol]", "6.53 ng/mL"]
]}

Request: concentration at 3 h for [2H]C([2H])([2H])C1=C[C@H]2c3c(O)cc(CCCCC)cc3OC(C)(C)[C@@H]2CC1([2H])[2H] [9-CD3-(8-D2)-THC] ?
Response: 7.27 ng/mL

====

# Run description: Persistence over time, blood samples (Example 18)
# Type: in vivo, mice
# Measurement context: mouse, blood, oral; 8 mg/kg administration, Time 6 h; label = analyte
Quantity measured: concentration at 6 h
# answer = value followed by unit

{"columns": ["Molecule", "Quantity measured", "Readout value"],
 "data": [
  ["[2H]C([2H])([2H])C1=C[C@H]2c3c(O)cc(CCCCC)cc3OC(C)(C)[C@@H]2CC1([2H])[2H] [9-CD3-(8-D2)-THC]", "concentration at 6 h", "1.81 ng/mL"]
]}

We next turn to a different molecule, shown below.
Request: concentration at 6 h for CCCCCc1cc(O)c2c(c1)OC(C)(C)[C@@H]1CCC(C)=C[C@@H]21 [THC, Δ-9-tetrahydrocannabinol] ?
Response: 4.14 ng/mL

====

# Run description: Pharmacokinetics, blood samples (Example 17)
# Measurement context: mouse, blood, ip, Component in the blood, mouse 1, 0.5 h after i.p. injection of THC or THC-d5; label = analyte
# Experimental: The pharmacokinetics of 9-CD3-(8-D2)-THC compared to natural THC was evaluated using both intraperitoneal i.p. injection and an oral gavage administration for each material. The mice were divided into four groups containing 6 mice (24 mice total). For each group of mice, a blood sample was withdrawn at baseline (t=0), and half-hour intervals (t=0.5, 2 and 5 h) after administration of the drug. […]
Quantity measured: concentration at 0.5 h (ng/mL)
Field format: number, assumed ng/mL, no unit text.

Request: concentration at 0.5 h for [2H]C([2H])([2H])C1=C[C@H]2c3c(O)cc(CCCCC)cc3OC(C)(C)[C@@H]2CC1([2H])[2H] [9-CD3-(8-D2)-THC] ?
Response: 183

Request: concentration at 0.5 h for CCCCCc1cc(O)c2c(c1)OC(C)(C)[C@@H]1CCC(C)=C[C@@H]21 [THC, Δ-9-tetrahydrocannabinol] ?
Response: 76.8
